Where do these numbers come from? They come from patent US20240116985A1.

- ASSAY_TARGET: full-length beta-Catenin (Uniprot ID P35222) (Homo sapiens, UniProt P35222)
- Construct: 10 nM full-length beta-Catenin (Uniprot ID P35222)
- Sequence (P35222 whole entry): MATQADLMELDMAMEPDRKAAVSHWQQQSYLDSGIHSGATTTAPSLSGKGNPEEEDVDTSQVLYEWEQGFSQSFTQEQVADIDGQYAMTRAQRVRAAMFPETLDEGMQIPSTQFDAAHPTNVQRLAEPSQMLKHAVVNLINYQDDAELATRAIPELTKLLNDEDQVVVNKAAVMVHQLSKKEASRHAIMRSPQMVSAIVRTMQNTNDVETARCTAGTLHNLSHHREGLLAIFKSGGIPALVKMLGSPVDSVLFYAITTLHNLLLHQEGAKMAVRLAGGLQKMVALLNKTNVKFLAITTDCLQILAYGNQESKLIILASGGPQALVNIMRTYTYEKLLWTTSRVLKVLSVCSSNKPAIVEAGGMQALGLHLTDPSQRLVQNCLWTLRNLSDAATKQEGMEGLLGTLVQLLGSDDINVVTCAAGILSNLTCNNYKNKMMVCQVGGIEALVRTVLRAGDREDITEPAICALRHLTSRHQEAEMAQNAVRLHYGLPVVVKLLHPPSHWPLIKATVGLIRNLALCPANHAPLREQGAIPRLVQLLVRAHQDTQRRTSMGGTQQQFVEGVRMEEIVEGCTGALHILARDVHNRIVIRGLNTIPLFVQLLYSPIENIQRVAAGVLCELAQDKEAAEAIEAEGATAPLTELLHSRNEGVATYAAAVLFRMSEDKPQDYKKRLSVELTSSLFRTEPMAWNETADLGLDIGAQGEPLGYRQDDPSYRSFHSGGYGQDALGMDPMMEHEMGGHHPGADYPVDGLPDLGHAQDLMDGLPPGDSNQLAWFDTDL
- ASSAY_PROCEDURE: Fluorescence polarization IC50 (beta-catenin / 5FAM-TCF4 10-53 competition)
- Format: binding
- STUDY_CONDITIONS: fluorescence polarization; read-out: beta-Catenin FP IC50
# pIC50 values compiled below
Just the number, please; pIC50 means minus log10 of the concentration in mol/L.

Check out these entries, answers already filled in.
CC[C@H](C)[C@@H]1NC(=O)[C@H](CC(=O)O)NC(=O)[C@]2(CC=CCCCC3(CCCC=CCCCCCC[C@@](C)(C(=O)N[C@@H](Cc4ccccc4)C(=O)N[C@@H](Cc4csc5ccccc45)C(=O)N[C@@H](CCC(N)=O)C(N)=O)NC(=O)[C@H](CCC(N)=O)NC(=O)[C@H](Cc4ccccc4)NC(=O)[C@H](C)NC(=O)[C@H](CC(C)C)NC(=O)[C@H](CCC(=O)O)NC(=O)[C@H](CC(=O)O)NC3=O)NC1=O)CCCN2C(C)=O (stereo partly drawn) [I-648] : 6.63
CC(=O)N1CCC[C@]12CCCCCCC1(CCCCCCCCCOC(=O)N3CC[C@@](C(=O)N[C@@H](Cc4ccsc4)C(=O)N[C@@H](Cc4csc5ccccc45)C(=O)N[C@@H](CCC(N)=O)C(N)=O)(C3)NC(=O)[C@H](CC(C)C)NC(=O)[C@H](Cc3ccccc3)NC(=O)[C@H](C)NC(=O)[C@H](C)NC(=O)[C@H](CN(CC(=O)O)CC(F)(F)F)NC(=O)[C@H](CC(=O)O)NC1=O)NC(=O)[C@H](CC(C)(C)C)NC(=O)[C@H](CC(=O)O)NC2=O (stereo partly drawn) : 6.75
CC(=O)N1CCC[C@]12CC=CCCCC1(CCCC=CCCCOC(=O)N3CC[C@@](C(=O)N[C@@H](Cc4ccsc4)C(=O)N[C@@H](Cc4csc5ccccc45)C(=O)N[C@@H](CCC(N)=O)C(N)=O)(C3)NC(=O)[C@H](CC(C)C)NC(=O)[C@H](Cc3ccccc3)NC(=O)[C@H](C)NC(=O)[C@H](C)NC(=O)[C@H](CC(=O)S)NC(=O)[C@H](CC(=O)O)NC1=O)NC(=O)[C@H](CC(C)(C)C)NC(=O)[C@H](CC(=O)O)NC2=O (stereo partly drawn) [I-1947] : 6.60

[in] pIC50 of CC(=O)NCCCC[C@@H]1NC(=O)[C@H](Cc2ccccc2)NC(=O)[C@H](C)NC(=O)C(C)(C)NC(=O)[C@H](Cc2cccc(C(=O)O)c2)NC(=O)[C@H](CC(=O)O)NC(=O)C2(CCCC=CCCCOC(=O)N3CC[C@@](C(=O)N[C@@H](Cc4ccsc4)C(=O)N[C@@H](Cc4csc5ccccc45)C(=O)N[C@@H](C)C(=O)N[C@@H](C)C(N)=O)(C3)NC1=O)CCCC=CC[C@]1(CCCN1C(C)=O)C(=O)N[C@@H](CC(=O)O)C(=O)N[C@@H](CC(C)(C)C)C(=O)N2 (stereo partly drawn) on full-length beta-Catenin (Uniprot ID P35222) (Homo sapiens, UniProt P35222)?
[out] 8.30

[in] pIC50 of CC(=O)N1CCC[C@]12CC=CCCCC1(CCCC=CCCCCCC[C@@](C)(C(=O)N[C@@H](Cc3ccccc3)C(=O)N[C@@H](Cc3csc4ccccc34)C(=O)N[C@@H](CCC(N)=O)C(=O)N[C@@H](C)C(N)=O)NC(=O)[C@H](CC(N)=O)NC(=O)[C@H](Cc3ccccc3)NC(=O)[C@H](C)NC(=O)[C@H](C)NC(=O)[C@H](CCC(=O)O)NC(=O)[C@H](CC(=O)O)NC1=O)NC(=O)[C@H](CC(C)C)NC(=O)[C@H](CC(=O)O)NC2=O (stereo partly drawn) [I-730] on full-length beta-Catenin (Uniprot ID P35222) (Homo sapiens, UniProt P35222)?
[out] 7.46

[in] pIC50 of CC(=O)N1CCC[C@]12CC=CCCCC1(CCCC=CCCCCCC[C@@](C)(C(=O)N[C@@H](Cc3ccsc3)C(=O)N[C@@H](Cc3csc4ccccc34)C(=O)N[C@@H](CCC(N)=O)C(N)=O)NC(=O)[C@H](CCO)NC(=O)[C@H](Cc3ccccc3)NC(=O)[C@H](C)NC(=O)[C@H](C)NC(=O)[C@H](CC(=O)O)NC(=O)[C@H](CC(=O)O)NC1=O)NC(=O)[C@H](CC(C)(C)C)NC(=O)[C@H](CC(=O)O)NC2=O (stereo partly drawn) on full-length beta-Catenin (Uniprot ID P35222) (Homo sapiens, UniProt P35222)?
[out] 8.05

[in] pIC50 of CC(=O)N1CCC[C@]12CC=CCCCC1(CCCC=CCCCOC(=O)N3CC[C@@](C(=O)N[C@@H](Cc4ccsc4)C(=O)N[C@@H](Cc4csc5ccccc45)C(=O)N[C@@H](CCC(N)=O)C(N)=O)(C3)NC(=O)[C@H](Cc3c[nH]cn3)NC(=O)[C@H](Cc3ccccc3)NC(=O)[C@H](C)NC(=O)[C@H](C)NC(=O)[C@H]([C@@H](C)O)NC(=O)[C@H](CC(N)=O)NC1=O)NC(=O)[C@H](CC(C)(C)C)NC(=O)[C@H](CC(=O)O)NC2=O (stereo partly drawn) [I-2147] on full-length beta-Catenin (Uniprot ID P35222) (Homo sapiens, UniProt P35222)?
[out] 6.41

[in] pIC50 of CC(=O)N1CCC[C@]12CC=CCCCC1(CCCC=CCCCCOC(=O)N3CC[C@@](C(=O)N[C@@H](Cc4ccsc4)C(=O)N[C@@H](Cc4csc5ccccc45)C(=O)N[C@@H](CCC(N)=O)C(N)=O)(C3)NC(=O)[C@H](CC(N)=O)NC(=O)[C@H](Cc3ccccc3)NC(=O)[C@H](C)NC(=O)[C@H](C)NC(=O)[C@H]([C@@H](C)O)NC(=O)[C@H](CC(N)=O)NC1=O)NC(=O)[C@H](CC(C)(C)C)NC(=O)[C@H](CC(=O)O)NC2=O (stereo partly drawn) on full-length beta-Catenin (Uniprot ID P35222) (Homo sapiens, UniProt P35222)?
[out] 6.03

[in] pIC50 of CC(=O)N1CCC[C@]12CC=CCCCC1(CCCC=CCCCCCC[C@@](C)(C(=O)N[C@@H](Cc3ccccc3)C(=O)N[C@@H](Cc3csc4ccccc34)C(=O)N[C@@H](CCC(N)=O)C(N)=O)NC(=O)[C@H](CCC(N)=O)NC(=O)[C@H](Cc3ccccc3)NC(=O)[C@H](C)NC(=O)[C@H](C)NC(=O)[C@H](CCC(=O)O)NC(=O)[C@H](CC(=O)O)NC1=O)NC(=O)[C@H](C(C)C)NC(=O)[C@H](CC(=O)O)NC2=O (stereo partly drawn) on full-length beta-Catenin (Uniprot ID P35222) (Homo sapiens, UniProt P35222)?
[out] 7.30
